meta.source: ChEMBL document CHEMBL5625192

test: AUC (0 to t) in Sprague-Dawley rat at 2 mg/kg, iv measured after 48 hrs by UPLC analysis; assay type: ADME, organism-based; conditions: in vivo
readout_label: AUC(0-t) at 48 h (ng·h/mL)
Please give a number only; it is taken to be in ng·h/mL.

// query Looking for the measured AUC(0-t) at 48 h of Nc1ncnc2c1c(-c1ccc(Oc3ccccc3)cc1)nn2C1CCN(C(=O)CN2CCN(CC3CN(c4ccc5c(c4)C(=O)N(C4CCC(=O)NC4=O)C5=O)C3)CC2)CC1 (stereo unspecified) , can you help?
// result 926

====

Listing: Activity of selected compounds
biological target: Protein cereblon/Tyrosine-protein kinase BTK (Homo sapiens, UniProt Q06187+Q96SW2); assay: PROTAC activity at CRBN/BTK in human Ramos cells assessed as induction of BTK degradation at 100 nM incubated for 24 hrs by Western blot analysis relative to control; type: cell-based
Sequence (Q06187 2-659 limits assumed): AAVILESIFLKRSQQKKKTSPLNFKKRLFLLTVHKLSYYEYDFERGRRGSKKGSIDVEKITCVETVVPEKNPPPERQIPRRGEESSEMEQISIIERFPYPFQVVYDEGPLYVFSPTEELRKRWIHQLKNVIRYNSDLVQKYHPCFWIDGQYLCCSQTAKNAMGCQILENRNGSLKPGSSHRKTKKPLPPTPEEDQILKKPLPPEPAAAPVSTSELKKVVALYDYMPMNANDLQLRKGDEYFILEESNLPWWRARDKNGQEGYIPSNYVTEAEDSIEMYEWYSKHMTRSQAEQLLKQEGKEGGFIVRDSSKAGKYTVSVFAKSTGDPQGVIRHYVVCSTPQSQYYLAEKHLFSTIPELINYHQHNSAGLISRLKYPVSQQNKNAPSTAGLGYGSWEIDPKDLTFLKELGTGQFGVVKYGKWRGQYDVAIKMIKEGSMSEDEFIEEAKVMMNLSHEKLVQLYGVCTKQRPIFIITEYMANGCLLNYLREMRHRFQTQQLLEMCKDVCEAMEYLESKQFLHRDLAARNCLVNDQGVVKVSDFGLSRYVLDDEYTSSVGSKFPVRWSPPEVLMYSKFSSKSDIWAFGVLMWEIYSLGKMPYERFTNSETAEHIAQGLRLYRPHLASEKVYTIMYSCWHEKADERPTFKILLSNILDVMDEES
Sequence (Q96SW2 whole entry partner): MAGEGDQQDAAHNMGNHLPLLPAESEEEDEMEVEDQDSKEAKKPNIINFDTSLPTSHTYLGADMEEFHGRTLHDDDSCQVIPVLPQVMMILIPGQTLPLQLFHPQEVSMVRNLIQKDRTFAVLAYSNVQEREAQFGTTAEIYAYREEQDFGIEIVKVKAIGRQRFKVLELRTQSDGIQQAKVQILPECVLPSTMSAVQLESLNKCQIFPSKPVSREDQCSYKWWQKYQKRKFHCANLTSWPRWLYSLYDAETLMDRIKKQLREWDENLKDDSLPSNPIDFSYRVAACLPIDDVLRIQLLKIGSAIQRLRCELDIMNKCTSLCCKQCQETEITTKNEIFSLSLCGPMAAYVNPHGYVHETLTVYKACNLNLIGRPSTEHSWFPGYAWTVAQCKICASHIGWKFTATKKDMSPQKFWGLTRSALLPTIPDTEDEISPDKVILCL

Use the examples below as a reference point.
compound="Nc1ncnc2c1c(-c1ccc(Oc3ccccc3)cc1)nn2C1CCN(CC2CN(CC3CCN(c4cccc5c4C(=O)N(C4CCC(=O)NC4=O)C5=O)CC3)C2)CC1 (centres undefined)" readout_label=Activity reported_measurement=36.2%
compound="Nc1ncnc2c1c(-c1ccc(Oc3ccccc3)cc1)nn2C1CCN(C(=O)CN2CCN(CC3CN(c4ccc5c(c4)C(=O)N(C4CCC(=O)NC4=O)C5=O)C3)CC2)CC1 (centres undefined)" readout_label=Activity reported_measurement=99.4%
compound="Nc1ncnc2c1c(-c1ccc(Oc3ccccc3)cc1)nn2C1CCN(CC2CN(CC3CN(c4cccc5c4C(=O)N(C4CCC(=O)NC4=O)C5=O)C3)C2)CC1 (centres undefined)" readout_label=Activity reported_measurement=31.3%

// query Would you kindly share the measured Activity for Nc1ncnc2c1c(-c1ccc(Oc3ccccc3)cc1)nn2C1CCN(Cc2ccc(C#CC3CCN(c4ccc5c(c4)C(=O)N(C4CCC(=O)NC4=O)C5=O)CC3)nc2)CC1 (centres undefined) ?
// result 62.7%
